Tested on: MS2 coat protein
Assay: apparent KD of MS2 coat protein; higher = weaker reporter binding
Conditions: Eterna round: R107; input ligand: theophylline 20 uM
MEASURED PROPERTY: apparent KD of MS2 coat protein (nM)

CHAIN	RECORDED MEASUREMENT
GCAGACAUGAGGAUCACCCAUGUACUUGGGCGAGGACCGGUACGGCCGCCACUCGUAGACUUGACGAGGAAAUGUUCUCGCAGGG [theeternabot_sameState_MS2_Trp_A_24]	31.6
ACAUGAGGAUCACCCAUGUACAUGAGGGAAGGAGCGGUACAUGUGCCAGGUAGGUCGCCCAACAGCAUCAGCCAUGUACAACAGG [zqwmullin]	72.6
CCUCAUGAACAUGAGGAUCACCCAUGUACACGAGGACCGGUACGGCCGCCACUCGAAUAACCUAAAUAUAAAUAAUAAUAAUAGG [5' end split MS2]	20.1
AUACAUGAGGAUCACCCAUGUGAUGGCCGGCGAGGACCGGUACGGCCGCCACUCGUGAUCCGUCCUGAGAGCAAAGCUCUCAGCA [Macete]	258
UAUAUAUAUCACUAACUGUUGUGGACGUCUCGAGGACCGGUACGGCCGCCACUCGGGCGGCCUCACAUGAGGAUCACCCAUGUCC [XTryp A #4]	192
GUUAUAGACGGAAGGAGCGCGACCACAUGAGGAUCACCCAUGUAUUGUGUUGGUAAUAGGUCGCAGGUAGGUCGCCGGUUAAUGA [#04 Same State - Arginine B]	50.1
GGACUAACCAGAAGGAGCGACACGCAGAAACUGCUAAAUCCUCCGCACGAGGAUCACCCGUGUCAGGUAGGUCGCUGGUUAGUCG [ArgBX 28]	66.7
UGUAUGUGAUCUGAUACCAGUCCAACUGGUAAAACCUGAGGAUCACCCUGGUAAAAUUGGGACCCUUGGCAGCAGAUCGCAUACU	674
GUCAGUUCUCAUGAUACCAGACCUGCCUCGGACAUGAGGAUCACCCAUGUACCCAAGCGAGUCCCUUGGCAGCAUGUGGCUUAAA [Ririatre]	19.4
CUGGACAUGAGGAUCACCCAUGUAAAUCCUCGAGGACCGGUACGGCCGCCACUCGAACGAGUGGCGCGCGAGUGCGCACUCGCGC [aKa]	66.9
CGAUCCUGCAGGGAUACCAGCGCCGCUUGAUAACUGUGCACAUGAGGAUCACCCAUGUAGCGCCCUUGGCAGCCCAGCUAGAGGG [Same State Theophylline B GF25]	29.2
GGACUAACUCGAAGGAGCGACACGCAGAAACUGCAAUUUCCUCCACACGAGGAUCACCCGUGUCAGGUAGGUCGCGAGUUAGUCG [ArgBX 29]	26.3
CACAUGAGGAUCACCCAUGUCUGAACUGAAGGAGCGCUAAAUAAGGCAGGUAGGUCGCGGAAUUUUGUGUGCAUAUGCACAUGGG [9.P]	30.7
AAUGAGUGGUGGUCAAGUGAUCCUCAUGAACGAGGACCGGUACGGCCGCCACUCGAUAACAUGAGGAUCACCCAUGUAAUAAUAA [|T'-M'-Trp-Ms2|_Design8]	18.9
UAAAUACAUGAGGAUCACCCAUGUUUGGAUACCAGAUAUGACAUUAUCCCUUGGCAGCCAUUCGUUCCAAAUGCUAUUGUGAAGG [theeternabot_sameState_MS2_Theo_A_26]	30.8
ACCUGCGUUUGAUUCUAUCAGACGCAGGUUCGAGGACCGGUACGGCCGCCACUCGGACAUGAGGAUCACCCAUGUUUGACAUGGG [#04 Exclusion Tryptophan A]	281
GGAUAGGACACGGCCGCCACUACCUAGGAUACUAGCAACAUUUGGGUACAAGAGGAUCACCCUUGUAGGACCGGGUGUCCUAUCG	28
AGACAUGAGGAUCACCCAUGUAGUACGGAUACCAGAUCCAGAUGUAUCCCUUGGCAGCUGUGGUACAGCGUUACAUCGCUCGUAG [Exclusion - Theophylline A (Freestyle 21)]	18.4
GGACCAUGGAGCGAUACCAGCUUGAGUGUGCUGGCCAGGCACAUGAGGAUCACCCAUGUAAGCCCUUGGCAGCGCUCCAUGGUCC [#1 Exclusion - Theophylline B Attempt #26 (HarryS)]	13.3
UUCGUUUACGGAAGGAGCGACGGACAUCGGUGAACGACGCACAUGAGGAUCACCCAUGUACGUCAGGUAGGUCGCCGUUAAGAGU [Somama]	27.7
CUAUGCAGGUCGGCCGCCACUACACACAUGAGGAUCACCCAUGUAGUUACUGGGUGAAGUGGCAGUAGGACCGGGACCUGCAUAU [Brourdmod07]	534
CAUGAGAGAUUGUUUUGUGACUCUAACGAUACCAGAGUAGGACUUCUCCCUUGGCAGCGUGUGACAUGAGGAUCACCCAUGUCCA [theeternabot_exclusion_MS2_Theo_A_5]	12.9
UGUAUGGACUGAAGGAGCGGAAGAUAACCUGAGGAUCACCCGGGUAAUAAGGCGAAAGCCUUCCAGGUAGGUCGCAGUCCAUACU	334
GGACUAACCAGAAGGAGCGGCACGCAGAAACUGCAAUUUCCUCCGCACGAGGAUCACCCGUGUCAGGUAGGUCGCUGGUUAGUCG	27.5

###

System: MS2 coat protein
Experiment: apparent KD of MS2 coat protein; designed switch direction (-1 OFF switch, 1 ON switch): 1; higher = weaker reporter binding
Settings: input ligand: microRNA oligo, concentration not stated
Please use satisfied whenever apparent KD of MS2 coat protein is not below 60 nM, and not satisfied whenever it is.

CHAIN	CLASS ASSIGNMENT
UUGAGGAAUUAAGGAUAUUGAGUACAUAUGUUUAACAUGAGGAUCACCCAUGUGGGUUGCGGUAUCGAGAAGGUAAAUUACUAC [salish99_SSNG2_r04_801] (Eterna round: R96, puzzle: Same State NG 2)	satisfied
UGUUGUAUUACAGGAUAUCUAUUAGUUUUGUUUAGAGAAGGGUAUUCACAUGAGGAUCACCCAUGUAUAUACGAGGAAGUUGUG [JMF's solution 97] (Eterna round: R96, puzzle: Same State NG 1)	not satisfied
GGUACCAUCACAGGAUAUGCUAUCCUUUGGGUAGCAGAAGGGUGAAACAUGAGGAUCACCCAUGUGGUGCCAGGGCGUGAGCCC [JL SSNG1 1.92] (Eterna round: R96, puzzle: Same State NG 1)	satisfied
GGAAUAUUUACAGGAUAUGUUUUGUUAAGUCGAGCAGAAGGGUGGAUGUCUUACACGGUUUGUUACAUGAGGAUCACCCAUGUC [SameState NG1 #15] (Eterna round: R96, puzzle: Same State NG 1)	satisfied
UGCUGUGUGGUAGGAUAUGUAGGAUAUGUACAUGAGGAUCACCCAUGUCAGUUAAUGACAGAAGGAUAGAAGGACCAGAGGGCU [pwkr ssNG2 2FMN 1F5s.3] (Eterna round: R96, puzzle: Same State NG 2)	satisfied
UUUCCAUAGAUAGGAUAUCAGUUUACAUGAGGAUCACCCAUGUUCUCUUUGGUUUUAAUUUUUUCUGAGAAGGAUCUUGAUGAA [JR_SSNG2_Sub001] (Eterna round: R96, puzzle: Same State NG 2)	not satisfied
UGUUGUAUUACAGGAUAUCUAUGAUUUUUACUUAGAGAAGGGUAUUCACAUGAGGAUCACCCAUGUAUAUACGAGGAAGUUGUG [JMF's solution 67] (Eterna round: R96, puzzle: Same State NG 1)	not satisfied
AAAAAACAUGAGGAUCACCCAUGUAAAAAUAUGGGAGGAUAUUCAAACACGAAAGUGAAAGAAGAAGGCCUAAAAA [SS! MT 18] (Eterna round: R96, puzzle: Same State 1)	not satisfied
GCGAGCGUACUUGCUACAUGAGGAUCACCCAUGUUUACUGGACAGGAUAUGGUACCGUUUCGGUACCAGAAGGGUUCAUCAUGU [JL SSNG3 3.69] (Eterna round: R96, puzzle: Same State NG 3)	satisfied

###

Tested on: K4 kissing-loop RNA reporter;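 note: bound reporter read as fluorescence of individual clusters on recovered sequencing chips by microscopy, with normalized cluster intensities fitted with a binding model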
Experiment: apparent KD of K4 kissing-loop reporter; higher = weaker reporter binding
Conditions: Eterna round: R107; input ligand: none
MEASURED PROPERTY: apparent KD of K4 kissing-loop reporter (µM)

CHAIN	MEASURED PROPERTY	MEASUREMENT UNITS	RECORDED MEASUREMENT
CCUAUCUCUUACGAUACCAGUCAAUGAUAUUUUAUCAAUGCCCUCACCGAGUGAUGUUCGGACCCUUGGCAGCGUAUGGGAUAGG [kjnjmullin]	apparent KD of K4 kissing-loop reporter	µM	0.212
CUAUCUUAAGAAGGAUAUUAUGUAACAAACGCAGGCGUAUUAGAAUCAGUGAUGUUGAAAUAGGUUUAAGAAGGUCUUAAAGAAA [theeternabot_sameState_KL_FMN_B_31]	apparent KD of K4 kissing-loop reporter	µM	0.326
UGCCGCAAGGCGAGCGCUCCCACUCCGGAAGGAGCGCCCGGAAGGGCAGGUAGGUCGCCGGAGUGAUGUUCCGGUGGAGGGCUCG [#2 Exclusion - Arginine A Attempt #26 (Inspired by Omei)]	apparent KD of K4 kissing-loop reporter	µM	0.358
UGAUACCAGACGGCCGCCACUACACCAGUCAAAGACUGGAUGUGAUGUCUGACCAGUGAUGUUGGUAGGACCGGGUCUGGUAUCU [TrypBX 6 #Palindromic #SwitchBubble #StaticStem]	apparent KD of K4 kissing-loop reporter	µM	0.428
UUAACCAACAGCGAUACCAGCGUGGAGUGAUGUUCCGAGGAUCGGAGUGAUGUUCCGAAGCGCCCUUGGCAGCGCAGAAGCGCAA [Exclusion Theophylline B GF8]	apparent KD of K4 kissing-loop reporter	µM	0.241
UGUCAUUGGUCGGCCGCCACUUCGUGUAGAGUGAUGUUUUGUAGGACGGAUCGAAAGAUCUGUCGGAGGACCGGGACCGAUGACU [FiskerMod 17 - Jieux - Same State - Tryptophan B]	apparent KD of K4 kissing-loop reporter	µM	0.408
AGCCACGACGCGGCCGCCACUGCCAUUAAACGUAAGGCAAAUCUAAUCUUCGAGUGAUGUUCGGGCAGGACCGGGCGGAGACUUG [theeternabot_sameState_KL_Trp_B_18]	apparent KD of K4 kissing-loop reporter	µM	0.478
GGAUGGUAGGCGGCCGCCACUAAAACUGAACACAUACAAGCCAGUGAUGUUGGUAUGAUGGAGUAUAGGACCGGGCCUAGAUAGA [Exclusion - Tryptophan B (Freestyle 4)]	apparent KD of K4 kissing-loop reporter	µM	0.472
GGUAUCUAUACAGAUACCAGUCGUACGGCUGCAUUACAGGUUAGUGAUGUUAACCUGUACGACCCUUGGCAGCUGUAUAGUAGUA [#14 K4 Theophylline B Exclusion]	apparent KD of K4 kissing-loop reporter	µM	0.115
UGUGAACAAAAGUAGAGUGGACCACUAUAGCGAGGACCGGUACGGCCGCCACUCGUACAUGAAUUCAGUGAUGUUGAAAUGAGCU [whbob_EX_Tryp_A_t14]	apparent KD of K4 kissing-loop reporter	µM	0.334
GGUGAUGAGCACGAUACCAGCCUCGGAGCCAGUGAUGUUGGCCCAGUUUAGAAUAAGACAGGCCCUUGGCAGCGUGACGAUGGCU [Inorusre]	apparent KD of K4 kissing-loop reporter	µM	1.02
